Can you tell me IC50 for the items I'm about to list?
- System: MV4-11 cells
- Experiment: MV4-11 cellular proliferative assay, Assay Format B (CTG 2.0, 168 h)
- Assay type: cell-based
- Condition Details: Homo sapiens, Assay format B, 168 h, read-out: IC50 (MV4-11 cellular proliferative assay)

Worked cases, answers included:
>>> result("Cc1nn(CCCCCCCC#Cc2cccc3c2CN([C@@H]2CCC(=O)NC2=O)C3=O)c2cc(C(=O)Nc3cc4[nH]c([C@H]5CCCN5C)c(Cl)c4cn3)ccc12 (relative stereo) [Example 101]")
"< 100 nM"
>>> result("Cc1nn(CCCCCCCC#Cc2cccc3c2CN(C2CCC(=O)NC2=O)C3=O)c2cc(C(=O)Nc3cc4[nH]c([C@H]5CCCN5C)c(C#N)c4cn3)ccc12 (stereo partly drawn) [Example 66]")
"< 100 nM"

Okay, now this molecule:
Entry Cc1nn(CCCCCCCC#Cc2ccc(F)c3c2CN(C2CCC(=O)NC2=O)C3=O)c2cc(C(=O)Nc3cc4[nH]c([C@H]5CCCN5C)c(Cl)c4cn3)ccc12 (stereo partly drawn) [Example 67] — recorded IC50 = < 100 nM

###

Please provide measured IC50 for the entries that follow.
- Target Under Test: MLLT3 (Homo sapiens)
- Sequence (P42568 1-568): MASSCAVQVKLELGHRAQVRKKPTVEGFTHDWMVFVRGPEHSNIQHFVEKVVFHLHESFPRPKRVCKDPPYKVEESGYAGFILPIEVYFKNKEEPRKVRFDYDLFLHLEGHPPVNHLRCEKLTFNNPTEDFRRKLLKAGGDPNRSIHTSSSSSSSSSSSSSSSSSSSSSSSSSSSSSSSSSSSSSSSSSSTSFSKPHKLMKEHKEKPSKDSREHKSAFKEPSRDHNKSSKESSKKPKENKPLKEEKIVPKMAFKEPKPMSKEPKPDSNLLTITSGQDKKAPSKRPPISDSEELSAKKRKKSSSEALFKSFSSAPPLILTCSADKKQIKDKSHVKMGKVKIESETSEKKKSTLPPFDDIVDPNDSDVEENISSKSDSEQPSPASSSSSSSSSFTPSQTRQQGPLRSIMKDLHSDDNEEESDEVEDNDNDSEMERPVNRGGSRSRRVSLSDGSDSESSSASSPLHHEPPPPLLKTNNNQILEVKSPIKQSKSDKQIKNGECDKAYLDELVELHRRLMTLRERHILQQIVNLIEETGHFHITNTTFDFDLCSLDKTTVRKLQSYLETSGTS
- Experiment: MLLT3 HTRF IC50 determination assay (H3K9cro peptide displacement)
- Assay type: binding
- Condition Details: category, Table 4

>>> result("Cc1nc(NC(=O)c2ccc3c(C)nn(C)c3c2)cc2[nH]c(C3CCCN3C)cc12 (single isomer, unassigned) [Example 93]")
"1000 to 10000 nM"
>>> result("Cc1nn(C)c2cc(C(=O)Nc3cc4[nH]c([C@H]5CCCN5C)c(Cl)c4cn3)ccc12")
"≤ 100 nM"

Proceeding to the next molecule to report its IC50.
Observed IC50, MLLT3 (Homo sapiens), Cc1nn(C)c2cc(C(=O)Nc3cc4[nH]c(C5CCCN5C)cc4cn3)ccc12 (racemic) : 100 to 1000 nM

###

I'd appreciate it if you could supply IC50 values for the items below.
- Target Under Test: MLLT3 (Homo sapiens)
- Experiment: MLLT3 HTRF IC50 determination assay (H3K9cro peptide displacement)
- Format: binding
- Condition Details: category, Table 4

>>> result("Cc1nn(C)c2cc(C(=O)Nc3cc4[nH]c(C5CCCN5C)c(F)c4cn3)ccc12 (single isomer, unassigned) [Example 88]")
"≤ 100 nM"

Give me IC50 for each of these compounds, listed below.
1. CN1CCCC1c1[nH]c2cc(NC(=O)c3ccc4c(cnn4C)c3)ncc2c1F (single isomer, unassigned) [Example 87]
2. CN1CCCC1c1[nH]c2cc(NC(=O)c3ccc4c(cnn4C)c3)ncc2c1F (single isomer, unassigned) [Example 86]
3. Cc1c(C2CCCN2C)[nH]c2cc(NC(=O)c3ccc4c(C)nn(C)c4c3)ncc12 (single isomer, unassigned) [Example 90]
4. Cc1nn(C)c2cc(C(=O)Nc3cc4[nH]c([C@H]5CCCN5C)cc4cn3)ccc12 (single isomer, unassigned)
5. Cc1nn(C)c2cc(C(=O)Nc3cc4[nH]c(C5CCCN5C)c(F)c4cn3)ccc12 (single isomer, unassigned) [Example 89]
6. Cc1nn(C)c2cc(C(=O)Nc3cc4[nH]c([C@@H]5CCCN5C)c(Cl)c4cn3)ccc12
7. CCN1CCCC1c1cc2cnc(NC(=O)c3ccc4c(C)nn(C)c4c3)cc2[nH]1 (single isomer, unassigned)

1: ≤ 100 nM; 2: 1000 to 10000 nM; 3: ≤ 100 nM; 4: ≤ 100 nM; 5: 1000 to 10000 nM; 6: 1000 to 10000 nM; 7: 100 to 1000 nM

// for each compound below, give its IC50
1. CN1CCCC1c1cc2cnc(NC(=O)c3ccc4c(cnn4C)c3)cc2[nH]1 (single isomer, unassigned) [Example 78]
2. Cc1nc(NC(=O)c2ccc3c(C)nn(C)c3c2)cc2[nH]c(C3CCCN3C)cc12 (single isomer, unassigned) [Example 92]
3. Cc1c(C2CCCN2C)[nH]c2cc(NC(=O)c3ccc4c(C)nn(C)c4c3)ncc12 (single isomer, unassigned) [Example 91]
4. CN1CCCC1c1cc2cnc(NC(=O)c3ccc4c(cnn4C)c3)cc2[nH]1 (single isomer, unassigned) [Example 79]
5. Cc1nn(C)c2cc(C(=O)Nc3cc4[nH]c([C@@H]5CCCN5C)cc4cn3)ccc12 (single isomer, unassigned)

1000 to 10000 nM
≤ 100 nM
1000 to 10000 nM
≤ 100 nM
1000 to 10000 nM

###

Assign IC50 to each entry below.
- Target Under Test: MLLT1 (Homo sapiens, UniProt Q03111)
- Sequence (Q03111 whole entry, species assumed): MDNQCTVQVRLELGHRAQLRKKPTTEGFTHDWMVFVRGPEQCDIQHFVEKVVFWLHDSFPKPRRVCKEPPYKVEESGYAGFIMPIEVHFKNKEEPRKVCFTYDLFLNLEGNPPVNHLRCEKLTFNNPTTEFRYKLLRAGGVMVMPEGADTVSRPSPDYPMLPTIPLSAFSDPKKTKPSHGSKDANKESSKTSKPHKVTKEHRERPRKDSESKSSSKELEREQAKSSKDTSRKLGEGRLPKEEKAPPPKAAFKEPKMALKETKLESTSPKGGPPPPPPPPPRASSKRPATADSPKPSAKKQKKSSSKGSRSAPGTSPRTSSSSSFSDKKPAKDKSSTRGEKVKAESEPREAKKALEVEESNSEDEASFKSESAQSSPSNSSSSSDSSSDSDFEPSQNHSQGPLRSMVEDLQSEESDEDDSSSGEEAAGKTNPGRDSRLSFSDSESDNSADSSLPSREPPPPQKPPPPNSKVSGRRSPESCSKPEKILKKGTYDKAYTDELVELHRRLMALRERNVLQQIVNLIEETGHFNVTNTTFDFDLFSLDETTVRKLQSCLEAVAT
- Experiment: MLLT1 HTRF IC50 determination assay (H3K9cro peptide displacement)
- Type: binding
- Condition Details: Table 5

Reference set, count: 3
>>> result("Cc1nn(C)c2cc(C(=O)Nc3cc4[nH]c(C5CCCN5C)c(F)c4cn3)ccc12 (single isomer, unassigned) [Example 88]")
"0.017 µM"
>>> result("Cc1nn(C)c2cc(C(=O)Nc3cc4[nH]c([C@H]5CCCN5C)c(Cl)c4cn3)ccc12 [Example 80]")
"0.006 µM"
>>> result("Cc1c(C2CCCN2C)[nH]c2cc(NC(=O)c3ccc4c(C)nn(C)c4c3)ncc12 (single isomer, unassigned) [Example 90]")
"0.012 µM"

Here are 2 compounds. What values of IC50 were reported for them?
1. Cc1nn(C)c2cc(C(=O)Nc3cc4[nH]c([C@H]5CCCN5C)cc4cn3)ccc12 (single isomer, unassigned) [Example 76]
2. Cc1nc(NC(=O)c2ccc3c(C)nn(C)c3c2)cc2[nH]c(C3CCCN3C)cc12 (single isomer, unassigned) [Example 92]

1: 0.043 µM; 2: 0.037 µM

###

Kindly state IC50 for each of the entries shown.
- Target Under Test: MLLT1 (Homo sapiens, UniProt Q03111)
- Experiment: MLLT1 HTRF IC50 determination assay (H3K9cro peptide displacement)
- Assay type: binding
- Condition Details: category, Table 4

Worked cases, IC50 given:
>>> result("Cc1nc(NC(=O)c2ccc3c(C)nn(C)c3c2)cc2[nH]c(C3CCCN3C)cc12 (single isomer, unassigned) [Example 92]")
"≤ 100 nM"
>>> result("CCN1CCCC1c1cc2cnc(NC(=O)c3ccc4c(C)nn(C)c4c3)cc2[nH]1 (single isomer, unassigned) [Example 84]")
"100 to 1000 nM"

Please look at the following molecule next.
Given the molecule Cc1nn(C)c2cc(C(=O)Nc3cc4[nH]c(C5CCCN5C)c(F)c4cn3)ccc12 (single isomer, unassigned) [Example 88] and test system MLLT1 (Homo sapiens, UniProt Q03111), the measured IC50 is ≤ 100 nM
